target: Cytochrome P450 3A5 (Homo sapiens, UniProt P20815)
Sequence (P20815 whole entry): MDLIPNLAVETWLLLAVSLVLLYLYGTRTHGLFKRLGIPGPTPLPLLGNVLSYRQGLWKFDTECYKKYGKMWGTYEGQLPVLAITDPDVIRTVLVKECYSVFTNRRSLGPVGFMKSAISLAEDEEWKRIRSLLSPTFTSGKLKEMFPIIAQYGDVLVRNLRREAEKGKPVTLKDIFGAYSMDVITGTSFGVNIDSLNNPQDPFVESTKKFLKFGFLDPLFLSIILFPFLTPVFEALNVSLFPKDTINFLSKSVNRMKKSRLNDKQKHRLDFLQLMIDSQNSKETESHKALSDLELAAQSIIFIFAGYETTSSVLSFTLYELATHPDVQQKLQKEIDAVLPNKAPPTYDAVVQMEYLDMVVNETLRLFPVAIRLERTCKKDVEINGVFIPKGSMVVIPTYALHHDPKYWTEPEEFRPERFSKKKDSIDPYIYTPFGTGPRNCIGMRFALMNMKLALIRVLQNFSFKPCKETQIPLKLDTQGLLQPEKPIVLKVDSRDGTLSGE
parameter_measured: IC50

(Q) Value lookup for IC50; key = Cc1c(O)c(O)cc[n+]1[C@@H](CO)Cc1ccccc1.[Cl-]
(A) > 200 µM

====

assay: Apparent clearance in Sprague-Dawley rat at 150 umol/kg, po measured up to 1440 mins by LC/MS/MS analysis; format: ADME, organism-based; conditions: in vivo, read-out: CL(app) (converted)
parameter_measured: CL/F

(Q) Which value of CL/F has been reported for Cc1c(O)c(O)cc[n+]1[C@@H](CO)Cc1ccccc1.[Cl-] in the records?
(A) 19 mL/min/kg

====

test: Cmax in Sprague-Dawley rat at 600 umol/kg, po measured up to 1440 mins by LC/MS/MS analysis; format: ADME, organism-based; parameters: dose 600 umol/kg, route oral; conditions: in vivo
parameter_measured: Cmax (µg/mL)
One number for each entry, in µg/mL.

(Q) Consider the compound Cc1c(O)c(O)cc[n+]1[C@@H](CO)Cc1ccccc1.[Cl-] and give its measured Cmax.
(A) 70
